Tested on: NCI-H1355
protocolSummary: relative viability (nuclei count vs DMSO), 5 days (fraction); higher = more cells survive
conditionInfo: first compound 50 µM
In plain terms, low relative viability, meaning strictly below 0.9, gives MET, and everything else gives NOT MET.

Sample answers from the record:
• O=C(O)CCCCC(CCSCc1ccccc1)SCc1ccccc1 (stereo not given) [CPI-613] + Nc1nc2[nH]cc(CCc3ccc(C(=O)N[C@@H](CCC(=O)O)C(=O)O)cc3)c2c(=O)[nH]1 [Pemetrexed] (partner 0.2 µM) = NOT MET
• O=C(O)CCCCC(CCSCc1ccccc1)SCc1ccccc1 (stereo not given) [CPI-613] + C[C@]1(O)C[C@@H](c2nc(-c3ccc4ccc(-c5ccccc5)nc4c3)c3c(N)nccn32)C1 [Linsitinib] (partner 1 µM) = MET
• O=C(O)CCCCC(CCSCc1ccccc1)SCc1ccccc1 (stereo not given) [CPI-613] + CC1(C)CCC(c2ccc(Cl)cc2)=C(CN2CCN(c3ccc(C(=O)NS(=O)(=O)c4ccc(N[C@H](CCN5CCOCC5)CSc5ccccc5)c(S(=O)(=O)C(F)(F)F)c4)cc3)CC2)C1 [Navitoclax] (partner 0.5 µM) = NOT MET
• O=C(O)CCCCC(CCSCc1ccccc1)SCc1ccccc1 (stereo not given) [CPI-613] + O=C(c1cc(Cc2n[nH]c(=O)c3ccccc23)ccc1F)N1CCN(C(=O)C2CC2)CC1 [Olaparib] (partner 8 µM) = MET

q: Here's an entry: O=C(O)CCCCC(CCSCc1ccccc1)SCc1ccccc1 (stereo not given) [CPI-613] + CCNC(=O)c1noc(-c2cc(C(C)C)c(O)cc2O)c1-c1ccc(CN2CCOCC2)cc1 [Luminespib] (partner 0.01 µM) . Is its relative viability below 0.9?
a: MET

* * *

Test system: NCI-H1792
protocolSummary: relative viability (nuclei count vs DMSO), 5 days (fraction); higher = more cells survive
conditionInfo: first compound 0.002 µM
Entries whose relative viability is below 0.5 take t; entries at or above 0.5 take f.

* CC(=O)O[C@@]12CO[C@@H]1C[C@H](O)[C@@]1(C)C(=O)[C@H](O)C3=C(C)[C@@H](OC(=O)[C@H](O)[C@@H](NC(=O)OC(C)(C)C)c4ccccc4)C[C@@](O)([C@@H](OC(=O)c4ccccc4)[C@H]21)C3(C)C [Docetaxel] + CS(=O)(=O)N1CCN(Cc2cc3nc(-c4cccc5[nH]ncc45)nc(N4CCOCC4)c3s2)CC1 [Pictilisib] (partner 1 µM) | t
* CC(=O)O[C@@]12CO[C@@H]1C[C@H](O)[C@@]1(C)C(=O)[C@H](O)C3=C(C)[C@@H](OC(=O)[C@H](O)[C@@H](NC(=O)OC(C)(C)C)c4ccccc4)C[C@@](O)([C@@H](OC(=O)c4ccccc4)[C@H]21)C3(C)C [Docetaxel] + C[C@@H](Oc1cc(-c2cnn(C3CCNCC3)c2)cnc1N)c1c(Cl)ccc(F)c1Cl [Crizotinib] (partner 1 µM) | f
* CC(=O)O[C@@]12CO[C@@H]1C[C@H](O)[C@@]1(C)C(=O)[C@H](O)C3=C(C)[C@@H](OC(=O)[C@H](O)[C@@H](NC(=O)OC(C)(C)C)c4ccccc4)C[C@@](O)([C@@H](OC(=O)c4ccccc4)[C@H]21)C3(C)C [Docetaxel] + CC(=O)c1c(C)c2cnc(Nc3ccc(N4CCNCC4)cn3)nc2n(C2CCCC2)c1=O [Palbociclib] (partner 0.5 µM) | f
* CC(=O)O[C@@]12CO[C@@H]1C[C@H](O)[C@@]1(C)C(=O)[C@H](O)C3=C(C)[C@@H](OC(=O)[C@H](O)[C@@H](NC(=O)OC(C)(C)C)c4ccccc4)C[C@@](O)([C@@H](OC(=O)c4ccccc4)[C@H]21)C3(C)C [Docetaxel] + Nc1nc2[nH]cc(CCc3ccc(C(=O)N[C@@H](CCC(=O)O)C(=O)O)cc3)c2c(=O)[nH]1 [Pemetrexed] (partner 0.2 µM) | t

From here, focus on the item given below.
q: Find out if reported relative viability for CC(=O)O[C@@]12CO[C@@H]1C[C@H](O)[C@@]1(C)C(=O)[C@H](O)C3=C(C)[C@@H](OC(=O)[C@H](O)[C@@H](NC(=O)OC(C)(C)C)c4ccccc4)C[C@@](O)([C@@H](OC(=O)c4ccccc4)[C@H]21)C3(C)C [Docetaxel] + COc1cccc2cc(-c3nc([C@H]4CC[C@H](C(=O)O)CC4)n4ncnc(N)c34)[nH]c12 [OSI-027] (partner 0.5 µM) is less than 0.5
a: f
